- Tested on: MDA-MB-435
- experiment description: NCI tumour cell line growth inhibition, 48 h
measured quantity: TGI

Note to self: TGI recorded for CC1OC(OC2C(OC(=O)[C@]34CCC(C)(C)C[C@H]3C3=CC[C@@H]5[C@@]6(C)CC[C@H](OC7OC(C(=O)O)C(O)C(O)C7O)C(C)(C)[C@@H]6CC[C@@]5(C)[C@]3(C)CC4)OCC(O)C2O)C(O)C(O)C1OC1OCC(O)C(O)C1O (stereo not given in full) was 34.8 µM

Note to self: TGI recorded for COc1ccc(-c2coc3ncnc(N)c23)cc1 was > 25 µM

Note to self: TGI recorded for NC(=S)SCCC(=O)O was > 100 µM

Note to self: TGI recorded for CC(=O)OCC1OC(n2c(C)c(N=Nc3ccc(C)cc3)c(C)c(C#N)c2=S)C(OC(C)=O)C(OC(C)=O)C1OC(C)=O (stereo not given) was > 100 µM

Note to self: TGI recorded for N#Cc1c(C#N)c(-c2cccc([N+](=O)[O-])c2)n(-c2ccccc2)c1N was > 100 µM

Note to self: TGI recorded for COc1ccc(OC)c(/C=C/c2nnc(Nc3ccc(Cl)cc3)o2)c1 was > 100 µM

Note to self: TGI recorded for O=C1c2ccccc2C(=O)c2c(OCC3CO3)ccc(OCC3CO3)c21 (stereo not given) was 7.61 µM

Note to self: TGI recorded for O=C(NO)c1cccc(OCc2ccc(Br)cc2)c1 was 38.7 µM

Note to self: TGI recorded for Cc1c(O)c(OC2OC(CO)C(O)C(O)C2O)cc2c1CC[C@@H]1C2(C)C(=O)C[C@]2(C)[C@@H]([C@@](C)(O)C(O)/C=C/C(C)(C)O)[C@H](O)C[C@@]12C (stereo not given in full) was > 100 µM

Note to self: TGI recorded for CCOC(=O)CSc1nc2ccccc2c(=O)n1N was > 100 µM

---

- Tested on: LOX IMVI melanoma
- experiment description: NCI tumour cell line growth inhibition, 48 h
Hi there, I'd appreciate the recorded TGI for every entry that follows.

Note to self: TGI recorded for CC(=O)[O-].CC(=O)[O-].[Mn+2].c1ccc(/C(=N\Nc2ccccn2)c2ccccn2)cc1 was 2.06 µM

Note to self: TGI recorded for CC(C)(Cl)CCC1=C(Cl)C(=O)c2ccccc2C1=O was 3.26 µM

Note to self: TGI recorded for COc1ccc(C(=S)c2cc(OC)c(OC)c(OC)c2)cc1OC(=O)CCl was > 100 µM

Note to self: TGI recorded for CCC[CH2][Sn]1([CH2]CCC)[O]C(c2ccccn2)S(=O)(=O)[O]1 (centres undefined) was 3.07 µM

Note to self: TGI recorded for CCN(Cc1ccc(F)cc1)c1ccc(CO)c(Cl)c1 was 20.7 µM

Note to self: TGI recorded for C=C(C)C1CC=C(C(=O)O)CC1 (centres undefined) was 3440 µM

Note to self: TGI recorded for CCc1cc(-c2nsc(=O)o2)c(S(=O)(=O)CC)s1 was > 100 µM

Note to self: TGI recorded for O=C(OCc1ccccc1)N1CCNCCNCC1 was > 100 µM

Note to self: TGI recorded for O=C(O)/C(Cl)=C(\Cl)Nc1cccc(C(F)(F)F)c1 was > 100 µM

---

- System: SW-620 colon
- experiment description: NCI tumour cell line growth inhibition, 48 h
Hi there, I'd appreciate the recorded TGI for every entry that follows.

Note to self: TGI recorded for CS(=O)(=O)c1nc(N)nc2nc[nH]c12 was > 100 µM

Note to self: TGI recorded for CS(=O)(=O)c1ccc(N/N=C/c2c(-c3ccc(S(C)(=O)=O)cc3)[nH]c3ccc(F)cc23)cc1 was > 50 µM

Note to self: TGI recorded for c1cncc(C2c3[nH]c4ccccc4c3CCN2CCCN2CCCCC2)c1 (configuration not stated) was > 100 µM

Note to self: TGI recorded for CC(=O)OCC1OC(n2c(C)c(N=Nc3ccc(C)cc3)c(C)c(C#N)c2=S)C(OC(C)=O)C(OC(C)=O)C1OC(C)=O (configuration not stated) was > 100 µM

Note to self: TGI recorded for CCc1cc(-c2nsc(=O)o2)c(S(=O)(=O)CC)s1 was > 100 µM

Note to self: TGI recorded for O=C1C=C(Nc2ccccc2)c2ncccc2C1=O was 1.28 µM

Note to self: TGI recorded for Cc1cc(C)c(C(=O)O)c(N)c1O was > 100 µM

Note to self: TGI recorded for CC1(C)CC23C(=O)N(c4ccccc4)C(=Nc4ccccc4)NC2=CC(C#N)=C(C#N)C3O1 (configuration not stated) was > 100 µM

Note to self: TGI recorded for CC(=O)O[C@H]1CC[C@H]2[C@@H]3CCc4cc(O)c(I)cc4[C@H]3CC[C@]12C was 27.7 µM

Note to self: TGI recorded for O=C1CCC(=O)N1CNc1ccc2c(c1)Sc1ccccc1O2 was > 100 µM

Note to self: TGI recorded for CC(=O)C1(c2ccccc2)CCN(Cn2sc3nc(C)cc(C)c3c2=O)CC1 was > 100 µM

Note to self: TGI recorded for C=C(C)C1CC=C(C(=O)O)CC1 (configuration not stated) was > 5000 µM

Note to self: TGI recorded for COc1cc(-c2c[nH]c3ccccc23)nc(-c2c[nH]c3ccccc23)n1 was 20.3 µM

Note to self: TGI recorded for O=C(OCc1ccccc1)N1CCNCCNCC1 was > 100 µM

Note to self: TGI recorded for COc1ccc(-c2cc(-c3ccc(Nc4nc(Nc5ccc(Cl)cc5)nc(Nc5ccc(Cl)cc5)n4)cc3)no2)cc1 was 25.6 µM

Note to self: TGI recorded for CCC[CH2][Sn]1([CH2]CCC)[O]C(c2ccccn2)S(=O)(=O)[O]1 (configuration not stated) was 3.02 µM

Note to self: TGI recorded for CC(=O)c1ccc(-c2oc(-c3ccccc3)cc2-c2ccc3c(c2)OCO3)s1 was > 100 µM

Note to self: TGI recorded for CC[C@H](C)c1occ2c(O)c(C(=O)O)c(=O)cc-2c1C was 44.5 µM

Note to self: TGI recorded for COc1ccc(OC)c(/C=C/c2nnc(Nc3ccc(Cl)cc3)o2)c1 was > 100 µM

Note to self: TGI recorded for CCCCCCCCCOC(=S)NC was 40.9 µM

Note to self: TGI recorded for CCCCCCN(CCCCCC)C(=N)c1ccnc2ccccc12 was 17.8 µM

Note to self: TGI recorded for COC(=O)[C@H](CCSC)NC(=O)c1ccc(CNC(=O)/C=C/c2cccc(Oc3ccccc3)c2)cc1 was > 100 µM

---

- System: COLO 205 colon
- experiment description: NCI tumour cell line growth inhibition, 48 h
measured quantity: TGI (µM)
Reply numerically in µM, unit not repeated.

Note to self: TGI recorded for CC(C)C1C(=O)N2CCCC2C2(O)OC(NC(=O)C3C=C4c5cccc6[nH]cc(c56)CC4N(C)C3)(C(C)C)C(=O)N12 (stereo not given) was 51.5

Note to self: TGI recorded for CN(CCc1ccc(Br)cc1)CCN1CCCCC1 was 32.4

Note to self: TGI recorded for CC(C)(Cl)CCC1=C(Cl)C(=O)c2ccccc2C1=O was 4.12

Note to self: TGI recorded for O=C(NO)c1cccc(OCc2ccc(Br)cc2)c1 was 27.4

Note to self: TGI recorded for CCCCCCCCN(CCCCCCCC)C(=N)c1ccnc2ccccc12 was 0.445

Note to self: TGI recorded for CC(C)(C)CN1[C@@H]2CCCC[C@H]2N(CC(C)(C)C)P1(=O)Cc1ccccc1 was 22.2

Note to self: TGI recorded for O=c1ncc(-c2ccc(C(F)(F)F)cc2)c(NC2CCCCCC2)[nH]1 was 34.7

---

- Tested on: A549 NSCLC
- experiment description: NCI tumour cell line growth inhibition, 48 h
measured quantity: GI50

Note to self: GI50 recorded for O=C1C(=O)c2cc([N+](=O)[O-])ccc2-c2ccccc21 was 1.9 µM

Note to self: GI50 recorded for CCCCCCCCCCCCCOC(=O)c1c(C)[nH]c(/C=C2\N=C(c3ccc[nH]3)C=C2OC)c1C was 0.0419 µM

Note to self: GI50 recorded for CCOC(=O)[C@H](CSSc1ncnc2cc[nH]c12)NC(=O)[C@@H](C)c1ccc2cc(OC)ccc2c1 was 6.36 µM

Note to self: GI50 recorded for Cc1cc(NC(=O)c2ccc(NS(=O)(=O)CCO)cc2N2CCC3(CC2)CC3)nc(N2CCC(F)(F)CC2)n1 was 14.2 µM

Note to self: GI50 recorded for CC(=O)[CH-]C(=O)c1ccccc1.CC(=O)[CH-]C(=O)c1ccccc1.O=C([O-])C[O-].O=C([O-])C[O-].[Ti+4] was 18.2 µM

Note to self: GI50 recorded for Nc1nc(N)c2nc(CNc3ccc(C(=O)CC(CCC(=O)O)C(=O)O)cc3)cnc2n1 (configuration not stated) was 0.153 µM

Note to self: GI50 recorded for CS(=O)(=O)CCNCc1ccc(-c2ccc3ncnc(Nc4ccc(OCc5ccccc5)c(C(F)(F)F)c4)c3c2)o1 was 8.23 µM

Note to self: GI50 recorded for COc1cccc(-c2nn(-c3ccccc3)cc2-c2ccnc(NCCNS(=O)(=O)c3ccc(C(F)(F)F)cc3)c2)c1 was 3.71 µM

Note to self: GI50 recorded for CCC[CH2][Sn]1([CH2]CCC)[O]C(c2ccccn2)S(=O)(=O)[O]1 (configuration not stated) was 20 µM

Note to self: GI50 recorded for CCCCCCN(CCCCCC)C(=N)c1ccnc2ccccc12 was 11.9 µM

Note to self: GI50 recorded for Cc1ccc(-c2csc(N(C(=O)N3CCN(c4cc5c(cc4F)c(=O)c(C(=O)O)cn5C4CC4)CC3)c3ccccc3)n2)cc1 was 0.372 µM

Note to self: GI50 recorded for COc1ccc(-c2cc(-c3ccc(Nc4nc(Nc5ccc(Cl)cc5)nc(Nc5ccc(Cl)cc5)n4)cc3)no2)cc1 was 16.4 µM
